Give measured IC50 for each item. Keep answers brief.

Exercise: Notebook: pull reported IC50 for EP2 (Homo sapiens, UniProt P43116), entry COc1cc(-c2ccc(Cn3ncc4cc(Cl)cc(C(=O)NC5CC6(C5)CC(C(=O)O)C6)c43)c(F)c2)ccn1 (stereo not drawn)
Solution: < 25 nM

Exercise: Notebook: pull reported IC50 for EP2 (Homo sapiens, UniProt P43116), entry CCOc1cc(-c2ccc(Cn3ccc4c(Cl)ccc(C(=O)NC5CC6(C5)CC(C(=O)O)C6)c43)cc2)ccn1 (stereo not drawn)
Solution: < 25 nM

Exercise: Notebook: pull reported IC50 for EP2 (Homo sapiens, UniProt P43116), entry COc1ncc(-c2ccc(C(C)n3ccc4c(F)ccc(C(=O)NC5CC6(C5)CC(C(=O)O)C6)c43)cc2)cc1Cl (racemic)
Solution: < 25 nM
